system: ACHN renal; test: NCI tumour cell line growth inhibition, 48 h; in the data active means GI50 below about 0.43 µM; inactive means the rest
Result category, one only: true (1) (active), false (0) (inactive)

I would be grateful if you could indicate the recorded call for O=C(Oc1ccc(Cl)cc1Cl)c1ccccc1Nc1ccnc(C(F)(F)F)c1 .
false (0)

Hello, I am checking results. What call was entered for COc1ccc(Cl)cc1Nc1nc(C(F)(F)F)ccc1C(=O)N/N=C/c1c(Cl)cccc1Cl ?
false (0)

Per the records of this test, what outcome belongs to COc1ccc(-c2nn3ncccc3c2-c2ccnc(Nc3ccc(Cl)c(C(F)(F)F)c3)n2)cc1 ?
false (0)

Tell me the assay call for COc1ccc2c(c1)[nH]c(=O)c1c3cc(C)c(C)cc3cn21 please.
true (1)

Lab log entry: CN1CC[C@@H](c2c(O)cc(O)c3c(=O)cc(-c4ccccc4Cl)oc23)[C@@H](O)C1 — outcome as called in the assay?
true (1)

Identify the outcome logged in this assay for the compound shown: Cc1ccc2[nH]cc(-c3nc(-c4c[nH]c5ncccc45)cs3)c2c1
false (0)

Continuing:
Could you kindly confirm the outcome this assay logged for Cc1c2c(nn1-c1ccc(S(=O)(=O)NC(=S)Nc3ccccc3)cc1)-c1ccccc1CC2 ?
false (0)

Please indicate how the test categorized C=C1C(=O)O[C@H]2[C@H]1CC/C(Cn1cc(CNC(=O)Cc3cn(C(=O)c4ccc(Cl)cc4)c4ccc(OC)cc34)nn1)=C\CC[C@@]1(C)O[C@@H]21 .
false (0)

Hello, I am checking results. What call was entered for COc1cc(-c2nn(-c3ccc(NC(=O)c4ccc(Cl)c(Cl)c4)cc3)cc2-c2ccncc2)ccc1Cl ?
false (0)

----------
system: RPMI-8226 leukemia; assay: NCI tumour cell line growth inhibition, 48 h
RESULT TYPE: TGI (µM)
State just the number; it will be interpreted in µM.

Looking up ClCc1cccc(Cn2cnc3c(Cl)ncnc32)c1 , I see its TGI listed as 16.1

Data point: CCN(CC)Cc1nc2sc3c(c2c(=O)n1-c1ccccc1)CCCC3 ; TGI = 81.9

The compound listed as O=[N+]([O-])c1ccc(C(c2c[nH]c3ccccc23)c2c[nH]c3ccccc23)cc1 shows TGI equal to 13.4

Continuing:
Kindly note the recorded TGI for Cc1cc(C)nc(NS(=O)(=O)c2ccc(Nc3c4ccccc4nc4c(C(=O)Nc5ccc(S(=O)(=O)N=C(N)N)cc5)ccc(Cl)c34)cc2)n1 , which is 80.1

----------
test system: MDA-N; assay: NCI tumour cell line growth inhibition, 48 h
RESULT TYPE: TGI

Below, each entry is followed by its recorded TGI result.
Recorded TGI (compound COc1ccc(CCn2cnc3ccccc32)cc1 ): > 100 µM

Lookup result for CC(=O)NCCCCNCCCNC(C)=O ; measured TGI: > 100 µM

Data point: COc1ccc(N2C=Nn3c(nc4sc(C)c(C)c4c3=O)C2)cc1 ; TGI = > 100 µM

Lab book: TGI of O=[N+]([O-])c1ccc(C(c2c[nH]c3ccccc23)c2c[nH]c3ccccc23)cc1 noted as 27.5 µM

So, CC(C)(CO)CNc1cc(=O)[nH]c(N)n1 ? Its TGI was > 100 µM

Next:
# compound O=c1[nH]nc(Cc2ccccc2)n1/N=C/c1c[nH]c2ccccc12 ; its TGI = > 100 µM

Please fill in: TGI reported for CC(=O)O/C=C\OC1CCCC1(c1ccccc1)c1ccccc1 (centres undefined) = 5 µM

Looking up NCCC(N)C(=O)O (centres undefined) , I see its TGI listed as > 100 µM

CC(C)(C)OC(=O)n1cc(C2CNC(=O)C23CCC(=O)N3Cc2ccccc2)c2ccccc21 (centres undefined) has a reported TGI of 85.5 µM

Entry Cc1ccc(C(=O)N(C2CCCCC2)C2CCCCC2)cc1N=NN(C)C ; TGI = 28.3 µM

----------
tested on: OVCAR-4 ovarian; assay: NCI tumour cell line growth inhibition, 48 h
Attribute: TGI

Example entries begin here.
For COc1cccc2cc(C)c(C(=O)c3ccccc3)nc12 the compound record lists TGI as > 100 µM

Documented TGI of O=C(CCCCCCSc1nc(-c2ccccc2)cc(-c2ccc(Cl)cc2)n1)NO : 13.5 µM

Measured TGI, CN(C)c1cccc2c(S(=O)(=O)N[C@H]3CC[C@H]4[C@@H]5CCc6cc(O)ccc6[C@H]5CC[C@]34C)cccc12 : 13.8 µM

Memo: COc1cc2c(cc1C[N+](C)(C)CSc1ccccc1)-c1ccccc1CC2 , reported TGI: 18.9 µM

API: the following record is the query input.
For CSc1c(C(=O)Nc2ccccc2)c(N)nn1-c1ccccc1 the compound record lists TGI as > 100 µM

----------
test system: KM12 colon; assay: NCI tumour cell line growth inhibition, 48 h
RESULT TYPE: TGI (µM)
Form entry: value (µM) — number only.

The compound listed as O=C(CCCCCCSc1nc(-c2ccccc2)cc(-c2ccc(Cl)cc2)n1)NO shows TGI equal to 13.5

Per the record, CCOc1cc2ncc(C#N)c(Nc3ccc(OCc4cccc(F)c4)c(Cl)c3)c2cc1NC(=O)CC1CCSS1 (stereo not given) has TGI of 1.12

----------
GI50 reference
tested on: UACC-257 melanoma; assay: NCI tumour cell line growth inhibition, 48 h
Non-standard residues stand in square brackets, D forms with d. Residues, ends and D or L forms follow the SMILES beside them. *: point of attachment. ONb = O=[N+]([O-])c1ccc(CO*)cc1; AllylGly = C=CC[CH](N)C(=O)O; Boc = CC(C)(C)OC(=O)*

Input C=C1CC2(OC1=O)C(=O)N(CCCCCCCN1C(=O)C3(CC(=C)C(=O)O3)c3ccccc31)c1ccccc12 (centres undefined) . Output GI50: 2140 nM

For reference, reported GI50 for CCN(CC)CCOc1nc2ccc(OC)cc2c2c1-c1ccc(OC)cc1C2=O stands at 1400 nM

The measured GI50 associated with O=C(NNc1nc(Cl)nc(N2CCN(C(c3ccccc3)c3ccccc3)CC2)n1)c1ccccc1 reads 2060 nM

In plain terms, ClCc1cccc(Cn2cnc3c(Cl)ncnc32)c1 has a documented GI50 of 20200 nM

compound Cc1cc(-c2ncc(CC(=O)Nc3ccc(-c4cnccn4)cn3)cc2C)ccn1 , GI50 observed: 16600 nM

O=C(Nc1ccc(N2CCNCC2)cc1)c1[nH]ncc1Nc1ncnc2sc3c(c12)CCC3 has a reported GI50 of 478 nM

So for COc1cc(/C(C#N)=C/c2ccc3c(c2OC)OCO3)cc2c1OCO2 , the logged GI50 turned out to be 794 nM

// GI50 lookup, compound = COc1ccc2nc(N/N=C(\C)c3ccccn3)cc(C)c2c1 , result: 276 nM

Data point: C=CCC(NC(=O)OC(C)(C)C)C(=O)NC(CCC(=O)OCc1ccc([N+](=O)[O-])cc1)C(N)=O (centres undefined) (Boc-[AllylGly]-Glu(ONb)-NH2; configuration not given here) ; GI50 = 16.2 µg/mL

Consider COc1ccc2c(c1)[nH]c(=O)c1c3cc(C)c(C)cc3cn21 . Its measured GI50 is 12800 nM

More entries:
Sample N=C1C(c2nc(-c3ccc(Br)cc3)cs2)=C(O)CN1Cc1cccnc1 ; GI50 observed: 27800 nM

Briefly, GI50 measured for COc1ccc(-c2nn3ncccc3c2-c2ccnc(Nc3ccc(Cl)c(C(F)(F)F)c3)n2)cc1 : 11500 nM

Measured GI50, O=C(CSc1nc2ccccc2[nH]1)Nc1ccc(-c2nc3ccccc3s2)c(Cl)c1 : 4080 nM

For Cc1ccc(-[n+]2c3cc(N)c(C)cc3nc3cc(C)c(Nc4ccccc4)cc32)cc1 the compound record lists GI50 as 242 nM

----------
test system: SF-539 CNS; experiment: NCI tumour cell line growth inhibition, 48 h; in the data active = GI50 below about 0.43 µM; inactive = the rest
Outcome (select one): TRUE for active, FALSE for inactive

Assay outcome for COC(=O)N[C@H]1CCc2c(Br)c(OC)c(OC)c(OC)c2-c2ccc(SC)c(=O)cc21 : what was it?
TRUE

Next:
Recorded call for N#Cc1c(Sc2ccccc2N)cccc1Sc1ccccc1N ?
FALSE

Answer briefly: the call reported for COc1ccc2c(c1)[nH]c(=O)c1c3cc(C)c(C)cc3cn21 in this assay.
TRUE

Hi team, can someone confirm the assay call for O=C(NNc1nc(Cl)nc(N2CCN(C(c3ccccc3)c3ccccc3)CC2)n1)c1ccccc1 ?
FALSE

Outcome logged for CC(=O)O[C@H]1CC[C@@]2(C)C(=CC[C@@H]3[C@@H]2CC[C@]2(C)C(c4cccnc4)=CC[C@@H]32)C1 in this assay:
FALSE

Which outcome was assigned to CS(=O)(=O)CCNCc1nc(-c2ccc3ncnc(Nc4ccc(F)c(Cl)c4)c3c2)cs1 in this test?
FALSE

Call for entry COc1ccc(-c2nc3sc(C)cn3c2/C=C/C(=O)c2cc(OC)c(OC)c(OC)c2)cc1 :
FALSE

Query: recorded result category for COc1ccc(-c2nn3ncccc3c2-c2ccnc(Nc3ccc(Cl)c(C(F)(F)F)c3)n2)cc1 in this test
FALSE

Check the results log: what was the call for CNC(P(=O)([O-])[O-])P(=O)([O-])[O-].N.N.[Pt+2] ?
FALSE
